# TESTED_TARGET: 11-beta-hydroxysteroid dehydrogenase 1 (Homo sapiens, UniProt P28845)
# Sequence (P28845 whole entry, looked up): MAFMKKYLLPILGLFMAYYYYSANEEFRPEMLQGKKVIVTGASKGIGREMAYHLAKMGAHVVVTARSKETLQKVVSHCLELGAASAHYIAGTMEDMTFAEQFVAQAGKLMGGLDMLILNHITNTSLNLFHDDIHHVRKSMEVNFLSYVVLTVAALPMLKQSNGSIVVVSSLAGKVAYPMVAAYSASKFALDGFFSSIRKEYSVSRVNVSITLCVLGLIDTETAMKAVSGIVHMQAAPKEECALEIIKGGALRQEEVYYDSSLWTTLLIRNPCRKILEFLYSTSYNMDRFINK
# TEST_PROTOCOL: Inhibition of 11beta-HSD1 in human liver microsomes using [3H]-cortisone as substrate assessed as formation of cortisol at 100 uM after 60 to 90 mins by radiometric analysis relative to control
# TEST_CONTEXT: Microsome
Measured inhibition, listed per entry for reference.
MEASUREMENT_KIND: inhibition (%)

• O=C1/C(=C/c2ccc(OC3CCCCO3)cc2)CC/C1=C\c1ccc(OC2CCCCO2)cc1 (centres undefined) = 30
• C=CCOc1ccc(/C=C/C(=O)/C=C/c2ccc(OCC=C)c(OC)c2)cc1OC = 14
• COc1cc(/C=C2\CCC/C(=C\c3cc(OC)c(OC)c(OC)c3)C2=O)cc(OC)c1OC = 21
• CCOc1ccc(/C=C/C(=O)/C=C/c2ccc(OCC)cc2)cc1 = 36

---

Measured inhibition, listed per entry for reference.
# TESTED_TARGET: 11-beta-hydroxysteroid dehydrogenase type 2 (Homo sapiens)
# Sequence (whole entry): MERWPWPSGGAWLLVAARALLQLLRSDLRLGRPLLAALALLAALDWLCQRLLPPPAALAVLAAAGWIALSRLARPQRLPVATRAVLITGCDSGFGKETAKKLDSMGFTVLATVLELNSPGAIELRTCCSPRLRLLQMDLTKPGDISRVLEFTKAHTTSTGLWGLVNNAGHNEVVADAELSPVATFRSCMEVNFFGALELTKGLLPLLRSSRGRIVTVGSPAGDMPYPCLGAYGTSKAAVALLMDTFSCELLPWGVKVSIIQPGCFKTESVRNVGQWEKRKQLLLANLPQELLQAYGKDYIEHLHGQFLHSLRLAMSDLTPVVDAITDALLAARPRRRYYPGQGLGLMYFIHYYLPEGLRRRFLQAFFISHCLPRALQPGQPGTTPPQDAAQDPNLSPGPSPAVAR
# TEST_PROTOCOL: Inhibition of 11beta-HSD2 in human kidney microsomes using [3H]-cortisol as substrate assessed as formation of cortisone at 100 uM after 30 mins by radiometric analysis relative to control
# TEST_CONTEXT: Microsome
MEASUREMENT_KIND: inhibition (%)

- C=CCOc1ccc(/C=C2\CC/C(=C\c3ccc(OCC=C)cc3)C2=O)cc1: 0
- COc1cc(/C=C2\CC/C(=C\c3ccc(OC4CCCCO4)c(OC)c3)C2=O)ccc1OC1CCCCO1 (stereo unspecified): 0
- O=C(/C=C/c1ccc(O)cc1)/C=C/c1ccc(O)cc1: 44
- C=CCOc1ccc(/C=C2\CC/C(=C\c3ccc(OCC=C)c(OC)c3)C2=O)cc1OC: 10
- COc1cc(/C=C2\CC/C(=C\c3cc(OC)c(OC)c(OC)c3)C2=O)cc(OC)c1OC: 5
- O=C1/C(=C/c2ccc(O)cc2)CCC/C1=C\c1ccc(O)cc1: 0
